Molecular target: human Y2 receptor (human) (UniProt P49146)
Sequence (P49146 whole entry): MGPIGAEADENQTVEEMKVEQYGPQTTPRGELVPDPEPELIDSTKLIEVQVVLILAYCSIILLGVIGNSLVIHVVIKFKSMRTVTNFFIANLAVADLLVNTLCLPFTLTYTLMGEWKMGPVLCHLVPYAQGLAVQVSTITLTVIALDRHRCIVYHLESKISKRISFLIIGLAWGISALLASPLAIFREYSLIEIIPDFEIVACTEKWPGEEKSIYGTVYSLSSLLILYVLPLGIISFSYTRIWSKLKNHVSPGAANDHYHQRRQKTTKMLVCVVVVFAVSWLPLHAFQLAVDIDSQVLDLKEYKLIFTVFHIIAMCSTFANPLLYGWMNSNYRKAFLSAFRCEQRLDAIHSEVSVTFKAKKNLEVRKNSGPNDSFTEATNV
Experiment: cell-based or functional assay
Starred links: 1 amine or outer side, 2 acyl side, 3 side chain; linkers in the order of their positions; H or OH if unused. Non-standard residues stand in square brackets, D forms with d. Ala(piperidin-4-yl) = O=C([C@H](CC1CCN([*:3])CC1)N[*:1])[*:2]; βHOAla = beta-homoalanine (β-HOAla), D- or L-form; 4Pal = N[C@@H](Cc1ccncc1)C(=O)O; Cha = N[C@@H](CC1CCCCC1)C(=O)O; Iva = CC[C@](C)(N)C(=O)O; Aib = CC(C)(N)C(=O)O
assay.endpoint: GBA EC50 Ratio ([35S]GTPγS binding) (EC50 compound/EC50 PYY(3-36))

Respond only with GBA EC50 Ratio ([35S]GTPγS binding) (EC50 compound/EC50 PYY(3-36)) recorded for Ac-[dP]R[4Pal][Cha][Aib]NK[Aib]TRQR[Cha]-NH2 (SMILES CC(=O)N1CCC[C@@H]1C(=O)N[C@@H](CCCNC(=N)N)C(=O)N[C@@H](Cc1ccncc1)C(=O)N[C@@H](CC1CCCCC1)C(=O)NC(C)(C)C(=O)N[C@@H](CC(N)=O)C(=O)N[C@@H](CCCCN)C(=O)NC(C)(C)C(=O)N[C@H](C(=O)N[C@@H](CCCNC(=N)N)C(=O)N[C@@H](CCC(N)=O)C(=O)N[C@@H](CCCNC(=N)N)C(=O)N[C@@H](CC1CCCCC1)C(N)=O)[C@@H](C)O) [Ac-[D-Pro24, Pya(4)26, Cha27,36, Aib28,31, Lys30]-PYY(24-36)]
0.56

Respond only with GBA EC50 Ratio ([35S]GTPγS binding) (EC50 compound/EC50 PYY(3-36)) recorded for Ac-E[dP][Iva][4Pal][Cha][Aib]NK[Aib]TRQR[Cha]-NH2 (SMILES CC[C@](C)(NC(=O)[C@H]1CCCN1C(=O)[C@H](CCC(=O)O)NC(C)=O)C(=O)N[C@@H](Cc1ccncc1)C(=O)N[C@@H](CC1CCCCC1)C(=O)NC(C)(C)C(=O)N[C@@H](CC(N)=O)C(=O)N[C@@H](CCCCN)C(=O)NC(C)(C)C(=O)N[C@H](C(=O)N[C@@H](CCCNC(=N)N)C(=O)N[C@@H](CCC(N)=O)C(=O)N[C@@H](CCCNC(=N)N)C(=O)N[C@@H](CC1CCCCC1)C(N)=O)[C@@H](C)O) [Ac-[Glu23, D-Pro24, Iva25, Pya(4)26, Cha27,36, Aib28,31, Lys30]-PYY(23-36)]
2.8

Respond only with GBA EC50 Ratio ([35S]GTPγS binding) (EC50 compound/EC50 PYY(3-36)) recorded for Ac-S[dP][Ala(piperidin-4-yl)][4Pal][Cha][Aib]NK[Aib]TRQR[Cha]-NH2 (also: Ala(4Pip)25 D or L, not assigned, later peak isomer) [Ac-[D-Pro24, Ala(4Pip)25, Pya(4)26, Cha27,36, Aib28,31, Lys30]-PYY(23-36) later peak]
5.8

Respond only with GBA EC50 Ratio ([35S]GTPγS binding) (EC50 compound/EC50 PYY(3-36)) recorded for Ac-S[βHOAla]R[4Pal][Cha][Aib]NK[Aib]TRQR[Cha]-NH2 (also: former peak isomer, β-HOAla configuration D or L not assigned) [Ac-[β-HOAla24, Pya(4)26, Cha27,36, Aib28,31, Lys30]-PYY(23-36) former peak]
2.8

Respond only with GBA EC50 Ratio ([35S]GTPγS binding) (EC50 compound/EC50 PYY(3-36)) recorded for Ac-S[Iva]R[4Pal][Cha][Aib]NK[Aib]TRQR[Cha]-NH2 (SMILES CC[C@](C)(NC(=O)[C@H](CO)NC(C)=O)C(=O)N[C@@H](CCCNC(=N)N)C(=O)N[C@@H](Cc1ccncc1)C(=O)N[C@@H](CC1CCCCC1)C(=O)NC(C)(C)C(=O)N[C@@H](CC(N)=O)C(=O)N[C@@H](CCCCN)C(=O)NC(C)(C)C(=O)N[C@H](C(=O)N[C@@H](CCCNC(=N)N)C(=O)N[C@@H](CCC(N)=O)C(=O)N[C@@H](CCCNC(=N)N)C(=O)N[C@@H](CC1CCCCC1)C(N)=O)[C@@H](C)O) [Ac-[Iva24, Pya(4)26, Cha27,36, Aib28,31, Lys30]-PYY(23-36)]
0.91
